The reported numbers originate from patent US20250333496A1.

Assign IC 50 (nM), reporter gene assay, 0% HSA to each entry below.
# TARGET UNDER TEST: human IL-6 (mature hIL-6) (human, UniProt P05231 30-212)
# Sequence (P05231 30-212): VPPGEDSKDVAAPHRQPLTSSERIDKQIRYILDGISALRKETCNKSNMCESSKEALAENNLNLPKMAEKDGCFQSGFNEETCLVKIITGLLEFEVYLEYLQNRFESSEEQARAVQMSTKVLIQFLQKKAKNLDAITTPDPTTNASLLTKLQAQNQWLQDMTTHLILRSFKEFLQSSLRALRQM
# METHOD DESCRIPTION: cell-based or functional assay
Answers are plain numbers, in nM.

Some binders with recorded IC 50 (nM), reporter gene assay, 0% HSA:
BINDER	IC 50 (nM), reporter gene assay, 0% HSA
Polypeptide_29 (VHH, VHH_1.6 with C-terminal His tag extension E1; also called [VHH_1.6]-E1) VHH: EVQLVESGGGLVQPGGSLKLSCTTSGRRFSEYAVGWFRQAPGKEREFVADIGEQAENTWYAESVLGRFTISRDDAKNTVYLEMDGLKPEDTAVYYCAADKYGVGGNAQGYYDSWGQGTQVTVSS	0.035
Reference Anti-IL6 Fab (Fab, V domains shown) VH: EVQLVESGGGLVQPGGSLRLSCAASGFTISSNYMIWVRQAPGKGLEWVSDLYYYAGDTYYADSVKGRFTMSRDISKNTVYLQMNSLRAEDTAVYYCARWADDHPPWIDLWGRGTLVTVSS VL: DIQMTQSPSTLSASVGDRVTITCRASQGISSWLAWYQQKPGKAPKVLIYKASTLESGVPSRFSGSGSGTEFTLTISSLQPDDFATYYCQQSWLGGSFGQGTKLEIKR	0.026
Polypeptide_31 (VHH, VHH_1.7 with C-terminal His tag extension E1; also called [VHH_1.7]-E1) VHH: EVQLVESGGGLVQPGGSLQLSCTTSGRKFDEYAVGWFRQGPGQEREFVADIGENAENTWYAESVLGRFTISRDDAKNTVYLEMDGLKPEDTAVYYCAADKYGVGGNAQGYYDSWGQGTQVTVSS	0.023

Given Polypeptide_47 (VHH, VHH_1.15 with C-terminal His tag extension E1; also called [VHH_1.15]-E1) VHH: QLQLVESGGGWVQPGGSLKLSCTTSGRRFSEYAVGWFRQAPGKEREFVADIGEQAENTWYAHSVLGRFTISRDEAKNTVYLQMNSLKPEDTAVYYCAADKYGVGGNAQGYYDSWGQGTQVTVSS , state its recorded IC 50 (nM), reporter gene assay, 0% HSA. 0.017
